assay: yeast display, Sf9 membrane polyspecificity reagent, FACS + sequencing; frameworks hold sequencing errors
readout: polyreactivity (PSR sort gate)

QVQLVESGGGLVQAGGSLRLSCAASGSTFYRNAMGWYRQAPGKERELVATITFNGGSTYYADSVKGRFTISRDNAKNTVYLQMNSLKPEDTAVYYCAKSHAIYYWWDESWGQGTQVTVSS; low polyreactivity
QVQLVESGGGLVQAGGSLRLSCAASGRTLDKYAIGWYRQAPGKERELVAAITSGGTTKYADSVKGRFTISRDNAKNTVYLQMNSLKPEVTAVYYCAKDLEGNPHFSYGIDFDYWGQGTQVTVSS; low polyreactivity
QVQLVESGGGLVQAGGSLRLSCAASGSTFKSYVMGWYRQAPGKERELVAAISSGDSTYYADSVKGRFTISRDNAKNTVYLQMNSLKPEDTAVYYCNADVSLDDYDYWGQGTQVTVSS; low polyreactivity
QVQLVESGGGLVQAGGSLRLSCAASGITFSKYAMGWYRQAPGKERELVAAITTSGVSTYYADSVKGRFTISRDNAKNTVYLQMNSLKPEDTAVYYCATELGWGGFYKYGHASQFDYWGQGTQVTVSS; low polyreactivity

---

assay: yeast display, Sf9 membrane polyspecificity reagent, FACS + sequencing; frameworks hold sequencing errors
readout: polyreactivity (PSR sort gate)

Some solved cases for reference:
QVQLVESGGGLVQAGGSLRLTCAASGRTFASNDMGWYRQAPGKEMELVADINNGARTYYADSVKGRFTISRDNAKNTVYLQMNSLKPEDTAVYYCAARRYGKQVRLYGYWGQGTQVTVSS; high polyreactivity
QVQLVESGGGLVQAGGSLRLSCAASGLIFYGYAMGWYRQAPGKERELVAAISSGGSTNYADSVKGRFTISRDNAKNTVYLQMNSLKPEDTAVYYCAAKPIFYRTILYYYWGQGTQVTVSS; high polyreactivity
QDQHVETGGRLVHAGCSLRISCAASGSTFTGYAMGWNRPPPGKERELVAAISSGGSTYYADSVKGRFTISRDNPKNTVYLQMNSLTPEDTAVYDCAAAPRWKASRLYYWGQCTQVTVSS; high polyreactivity
QVQLVESGGGLVQAGGSLRLSCAASGRISRSKTMGWYRQATGKERELFAVINTWIGGSTYYADSVKGRFTISRDNAKNTVYLQMNRQKPEDTAVYYCAADATLWDWWLDYDYWGQVTQVTVSS; high polyreactivity
QVQQQESGGGLVQAGGSLRLSCAASGTIFQLTVMGRYRQAPGKERELVASIDYGGNTNYADSVKGRFTISRDNAKYTVYLLMISLKPEDTAVYYCAASSVSWTTHPYWGQGTQVTVSS; low polyreactivity

Given `QVQLVESGGGLVQAGGSLRLSCAASGSIFPFYAMGWYRQAPGKERELVATISWSGGRTYYADSVKGRFTISRDNAKNTVYLQMNSLKPEDTAVYYCAAGSYHYPNAYYYWGHGTQVTVSS` , state its recorded polyreactivity (PSR sort gate).
high polyreactivity

Given `QVQLVESGGGLVQAGGSLRLSCAASGFIFHYNAMGWYRQAPGKERELVAAISARGGGTYYADSVKGRFTISRDNAKNTVYLQMNSLKPEDTAVYYCAAGNYPLGDGYWGQGTQVTVSS` , state its recorded polyreactivity (PSR sort gate).
high polyreactivity

Given `QVQLVESGGGLVQAGGSLRLSCAASGSIFGAYAMGWYRQAPGKERELVAAISGSGTSTYYADSVKGRFTISRDNAKNTVYLQMNSLKPDDTAVYYCATAKLTWRSQGLDYWGQGTQVTVSS` , state its recorded polyreactivity (PSR sort gate).
low polyreactivity

Given `QVQLVESGGGLVQAGGSLRLSCAASGFIFEYYAMGWYRQAPGKERELVAAISNGGGRTYYADSVKGRFTISRDNAKNTVYLQMNSLKPEDTAVYYCAAYWVYQRNSRTWEYDYWGQGTQVTVSS` , state its recorded polyreactivity (PSR sort gate).
high polyreactivity

Given `QVQLVESGGGLVQAGGSLRLSCAASGRSFGTNAMVSYIQAPGKEREFVAAIRKSGATTYYADSVKGRFTISRDNAKNTVYLQMNSLKPDDTAVYYCAADFFYYGKWYSGYYWGQGTQVTVSS` , state its recorded polyreactivity (PSR sort gate).
high polyreactivity

Given `QVQHVESGGGLVQAGGSLRLSCAASGIIFPRNAMGRYRQAPGKEREFVAAITLSGGRTYYADSVKGRFTISRDNAKNSVYLQMNSLKPEDTAVYYCAAYGFGPYKGVDYWGQGTQVTVSS` , state its recorded polyreactivity (PSR sort gate).
high polyreactivity

---

test: yeast display, Sf9 membrane polyspecificity reagent, FACS + sequencing; frameworks hold sequencing errors
readout: polyreactivity (PSR sort gate)

Some solved cases for reference:
QVQLVESGGGLVQAGGSLRLSCAASGSLFYSNTMGWYRQAPGKERELVAAISRGGSTYYADSVKGRFTISRDNAKNTVYLQMNSLKPEDTAVYYCAARYRWAPAYDYWGQGTQVTVSS; high polyreactivity
QVQLVESGGGLVQAGGSLRLICAASGSIFVNNGMGWYRQAPGKERELVAAIRLSTGSTYYADSVKGRFPISRDNAKNTVYLQMNSLKPEDTAVYYCATRYYIWGNWGQGTQVTVSS; high polyreactivity
QVQLVESGGGLVQAGGSLRLSCAASGSIFYPYAMGWYRQATGKERELVAVITDTGSTYYADSVKGRFTISRDNAKNTVYLQMNSLKPEDTAVYYCYRTSYVKTPTKRYNYWGQGTQVTVSS; low polyreactivity
QVQLVESGGGLVQAGGSLRLSCAASGRTFRLYAMGWYREAPGKERELVAAISYSGGSTYYADSVKGRFTISRDNAKNTVYLPMNSLKPEDTAVYYCAAYSGYYGGDDYWGQGTQVTVSS; high polyreactivity

Given `QVQLVETGGGLVQAGGSLRLSCAASGRIFKRNTMGWYRQAPGKEREFVASITFSGGSTNYADSVKGRFTISRDNAKNTVYLQMNSLKPEDTAVYYCAARDYHYSTYDYWGQGTQVTVSS` , state its recorded polyreactivity (PSR sort gate).
low polyreactivity

Given `QVQLVESGGGLVQAGGSLRLSCAASGRIFRRYALGLYRQAPGKEREFVAAISYGGGSTYYADSVKGRFTISRDNAKNTVYLQMNRLKPEDTAVYFCNADVPKSLLLYYPWGYGYWGQGTQVTVSS` , state its recorded polyreactivity (PSR sort gate).
low polyreactivity

Given `QVQLVESGGGLVQAGGSLRLSCAASGSTFEYYAMGWYRQAPGKERELVAAISSGPSTTYADSVKGRFTISRDNAKNTVYLQMNSLKPEDTAVYYCAARTYPSYYVTFEYWGQGTQVTVSS` , state its recorded polyreactivity (PSR sort gate).
low polyreactivity

Given `QVQLVESGGGLVQAGGSLRLSCAASGSIFVNYAMGWYRQAPGKERELVAAISTGGGRTFYADSVKGRFTISRDNAKNTVYLQMNSLKPEDTAVYYCNKLGRPEYDYWGQGTQVTVSS` , state its recorded polyreactivity (PSR sort gate).
high polyreactivity

Given `QVQLVESGGGLVQAGGSLRLTCAASGRTFWYYAMGWYRQAPGKERELVAAISRNGGSTYYEDSVKGRFTISRDNAKNTVYLQMNSLKPEDTAVYYCAATLLRDYDYWGQGTQVTVSS` , state its recorded polyreactivity (PSR sort gate).
high polyreactivity

Given `QVQLVESGGGLVQAGGSLRLSCAASGRIFNFNGMGWYRQAPGKERELVAAITSGGSTYYADSVKGRFTISRDNAKNTVYLQMNSLKPEDTAVYYCAAQNAWWSNGRSYDYWGQGTQVTVSS` , state its recorded polyreactivity (PSR sort gate).
low polyreactivity

Given `QVHIVESGGGLVQAGGSLRISCAASGRILLLYDMGWYRQAPGKERELVAAINWDGGYSYADSVKGRFTISRDNANNTVFLQMNSLKPADTAVYYCAKDDIWEHYDYWGQGTQVTVSS` , state its recorded polyreactivity (PSR sort gate).
low polyreactivity

Given `QVQLVESGGGLVQAGGSLRLSCAASGRIFGKYAMGWYRQAPGKERELVARISFSGGTTYYADSVKGRFTISRDNAKNTVYLQMNSLKQEDTAVYYCNARRVWSQRWAYDSWGQGTQVTVSS` , state its recorded polyreactivity (PSR sort gate).
high polyreactivity

Given `QVQLVESGGGLFQAGGSLRLSCAASGIIFTSYAMGWYRQAPGKESEFVAAITRSGSRTYYADSVKGRFTISRDNAKNTVYLQMNRLKPEDTAVYYCAARTYHDSSDSYAGGYWGQGTQVTVSS` , state its recorded polyreactivity (PSR sort gate).
low polyreactivity

Given `QVQLVESGGGLVQAGGSLRLSCAASGYTFVIYAMGWYRQAPGKERELVAAITTIGGRTYYADSVKGRFTISRDNAKNTVYLQMNSLKPEDTAVYYCAADIRSNRLYDGGYWGQGTHVTVSS` , state its recorded polyreactivity (PSR sort gate).
low polyreactivity

Given `QVQLVESGGGLVQAGGILRLSCAASGSIFEWYAMGWYRQAPGKEREFVAAINSGGSTYYADSVKGRFTISRDNAKNTVYLQMNSLKPEDTAVYYCNKVSYGYSTYGYWGQGTQVTVSS` , state its recorded polyreactivity (PSR sort gate).
low polyreactivity

Given `QVQLVESGGGLVQARGSLRLSCAASGSTFYPYAMGWYRQAPGKERELVAAISSGGSTSYADSVKGRFTISRDNAKNTVYLQMNSLKPEDTAVYYCNASSPGAVPVYDYDYWGQGTQVTVSS` , state its recorded polyreactivity (PSR sort gate).
low polyreactivity

Given `QVQLVESGGGLVQAGGSLRLSCAASGSIFSPYAMGWYRQAPGKERELVAAISFRASTTYYADSVKGRFTISRDNAKNTVYLQMNSLKPEYTAVYYCAKKRPGFLRYGSIGEFQYDYWGQGTQVTVSS` , state its recorded polyreactivity (PSR sort gate).
low polyreactivity

Given `QVQLVESGGGLVQAGGTLRLSSAPTGSNFSAYAKGWYREAPGKERELVAAISTSGYTNYADSVKGRFTISRDKALNTVYLQMNSLKPEDTAVSYCAADRDYGDGTAGYGYEFDYWGQGTQVTVSS` , state its recorded polyreactivity (PSR sort gate).
low polyreactivity

Given `QVQLVDSGGGLVQAGGSLRLSCAASGSIFRYKAMGWYRQAPGKERELVAAISWSGGRTYYADSVKGRFTISRDNAKNTVYLQMNSLKPEDTAVYYCAAAWYSSSRYQGIYRFAYWGQGTQVTVSS` , state its recorded polyreactivity (PSR sort gate).
high polyreactivity

Given `QVQLVESVGGLVQAGGSLRLSCAASGITFYKYAMGWYRQAPGKERELVASIDRVGITNYADSVKGRFTISRDNAKNTVYLQMNSLKPEDTAVFYCNADYYRYYSITYGGDYWGQGTQVTVSS` , state its recorded polyreactivity (PSR sort gate).
high polyreactivity

Given `QVQLVESGGGLVQAGGSLRLSCAASGRIFSTYTMGWYRQAPGKERELVASISWSGVRTRYADSVKGRFTISRDNAQNTVYLQMNSLKPEDTAVYYCAAVVPYYYRSPSNHMGYWGQGTQVTVSS` , state its recorded polyreactivity (PSR sort gate).
high polyreactivity
